This collection of values is drawn from patent US20200317776A1.

Target: T1, human TREM2 Fc fusion (entire TREM2 ECD; only one Fc arm fused to TREM2) (human, UniProt Q9NZC2 19-174)
T1 construct: also called huTREM2-Fc; recombinant hTREM2
T1 sequence: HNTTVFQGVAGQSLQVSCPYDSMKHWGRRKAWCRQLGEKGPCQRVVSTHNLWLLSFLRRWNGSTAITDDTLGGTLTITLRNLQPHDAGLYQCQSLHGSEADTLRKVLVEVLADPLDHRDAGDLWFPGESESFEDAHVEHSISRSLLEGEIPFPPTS
Experiment: BLI, Fab, monovalent
ASSAY_ENDPOINT: pKd
Interpret pKd as the negative base-10 log of the concentration measured in mol/L.

AL2p-29 (antibody, V domains shown, Fab and IgG formats under one id) VH: QVQLVQSGAEVKKPGSSVKVSCKASGYAFSSQWMNWVRQAPGQGLEWMGRIYPGDGDTNYAQKFQGRVTITADESTSTAYMELSSLRSEDTAVYYCARLLRNQPGESYAMDYWGQGTLVTVSS VL: GVVMTQTPLSLSVTPGQPASISCRSSRSLVHSNGYTYLHWYLQKPGQSPQLLIYKVSNRFSGVPDRFSGSGSGTDFTLKISRVEAEDVGVYYCSQSTRVPYTFGQGTKLEIK: 8.20

In the following, a different binder is considered.
query: I have this binder here, AL2p-8 (antibody, V domains shown, Fab and IgG formats under one id) VH: QVQLVQSGAEVKKPGSSVKVSCKASGYAFSLSWMNWVRQAPGQGLEWMGRIYPGDGDTNYARKFQGRVTITADESTSTAYMELSSLRSEDTAVYYCARLLRNQPGSSYAMDYWGQGTLVTVSS VL: GVVMTQTPLSLSVTPGQPASISCRSSQSLIHSNGYTYLHWYLQKPGQSPQLLIYKVSNRRSGVPDRFSGSGSGTDFTLKISRVEAEDVGVYYCSQSTRVPYTFGQGTKLEIK , and I need its recorded pKd.
result: 8.40
